MEASURED_ON: Gallus gallus (Gg) KDELR2 (Gallus gallus, UniProt Q5ZKX9)
Construct: GFP-His fusion (C); made in house; host or cells: Saccharomyces cerevisiae strain BY5460
Sequence (Q5ZKX9 1-212): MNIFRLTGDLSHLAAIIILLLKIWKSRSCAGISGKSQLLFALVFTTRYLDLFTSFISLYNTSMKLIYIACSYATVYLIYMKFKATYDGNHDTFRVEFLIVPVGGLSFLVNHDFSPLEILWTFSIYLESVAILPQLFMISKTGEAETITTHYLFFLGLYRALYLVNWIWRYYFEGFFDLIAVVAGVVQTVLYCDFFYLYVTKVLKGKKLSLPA
ASSAY_INFO: Peptide binding assay, competition of 3H-labelled peptide (filter binding, scintillation counting)
TEST_PARAMETERS: competition of 3H-labelled peptide at 20 nM, 20 mM MES pH 5.4, 40 mM sodium chloride, 0.01% DDM 0.0005% CHS, 20°C, 10 min, mean, n = 3, read-out: affinity (mean IC50, Figure S3)
pIC50: −log10 of the molar value. Where no end group is shown, it is not given here.
ATTRIBUTE_MEASURED: pIC50

- TAEHDEL [TAEHDEL, reference compound]: 4.74
- TAEHDEF [TAEHDEF]: 4.64

Reference source for all entries: paper PMC7617889
